# ASSAY_PROCEDURE: in vivo
# ASSAY_CONTEXT: dog
REPORTED_ENDPOINT: clearance
Please make sure the unit comes right after the number.

Lab note: CO[C@H]1C[C@@H](n2c(=O)n(C)c3cnc4ccc(-c5ccc(OCCCN(C)C)nc5)cc4c32)C1 gave clearance of 27.6 mL/min/kg

###

# ASSAY_PROCEDURE: Buffer/octanol partition coefficient, log D of the compound at pH 7.4 by shake flask method
# Assay type: physicochemical
Measured logD values are reported for all entries that follow.

Illustrative cases are given below, each with its answer.
1. CN(C)CCCOc1ccc(-c2ccc3nnc4c(c3c2)n(C2CCOCC2)c(=O)n4C)cn1 = 0.8
2. COCc1ccc(-c2cc3c(cc2F)ncc2c3n(C3CCOCC3)c(=O)n2C)cn1 = 2.4

Then this compound:
# logD (compound: CN(C)CCCOc1ccc(-c2ccc3ncc4c(c3c2)n(C2CCOCC2)c(=O)n4C)cn1 ) is 1.5

###

In this section, each of the molecules is paired with its reported Papp A→B.
# ASSAY_PROCEDURE: Apparent permeability across apical to basolateral side in MDCK cells overexpressing MDR1
# Type: ADME, cell-based, Canis lupus familiaris
# ASSAY_CONTEXT: dog
Number in ×10⁻⁶ cm/s, nothing else.

1) CO[C@H]1C[C@@H](n2c(=O)n(C)c3cnc4cc(F)c(-c5ccc(CO)nc5)cc4c32)C1 = 29

Papp A→B for CO[C@H]1C[C@@H](n2c(=O)n(C)c3cnc4cc(F)c(-c5ccc(OCCN(C)C)nc5)cc4c32)C1 is 16

For record CCC(CC)CNc1c(C(N)=O)cnc2cc(F)c(-c3cnc(NCCN4CCCC4)nc3)cc12 the listed Papp A→B is 0.8

###

Each entry below lists one item and its recorded solubility thermodynamic at 24 h value.
# ASSAY_PROCEDURE: Thermodynamic solubility of the compound in 0.1M aqueous phosphate buffer at pH 7.4 after 24 hrs by LC-UV analysis
# Assay type: physicochemical
# ASSAY_CONTEXT: read-out: Therm_solubility

These recorded examples may help you get a feel for the data.
1) CO[C@H]1C[C@@H](n2c(=O)n(C)c3cnc4ccc(-c5ccc(OCCCN(C)C)nc5F)cc4c32)C1 = > 1100 µM
2) CO[C@H]1C[C@@H](n2c(=O)n(C)c3cnc4cc(F)c(-c5ccc(NCCN(C)C)nc5)cc4c32)C1 = > 1000 µM
3) CN(C)CCCOc1ccc(-c2ccc3ncc4c(c3c2)n(C2CCOCC2)c(=O)n4C)cn1 = > 800 µM
4) CO[C@H]1C[C@@H](n2c(=O)n(C)c3cnc4cc(F)c(-c5ccc(OCCN(C)C)nc5)cc4c32)C1 = > 1000 µM
5) CO[C@H]1C[C@@H](n2c(=O)n(C)c3cnc4ccc(-c5ccc(OCCCN6CCCCC6)nc5)cc4c32)C1 = > 1000 µM

The molecule listed as CO[C@H]1C[C@@H](n2c(=O)n(C)c3cnc4ccc(-c5ccc(OCCCN6CCCC6)nc5)cc4c32)C1 shows solubility thermodynamic at 24 h equal to > 1100 µM

###

# ASSAY_PROCEDURE: Apparent permeability across apical to basolateral side in MDCK cells overexpressing MDR1
# Format: ADME, cell-based, Canis lupus familiaris
# ASSAY_CONTEXT: dog
REPORTED_ENDPOINT: Papp A→B (×10⁻⁶ cm/s)
The response must be a number in ×10⁻⁶ cm/s with no trailing unit.

1. Cn1c(=O)n([C@H]2CCCOC2)c2c3cc(-c4ccc(OCCCN5CCCCC5)nc4)c(F)cc3ncc21 = 7.1
2. CN(C)CCCOc1ccc(-c2ccc3ncc4c(c3c2)n([C@@H]2CCCOC2)c(=O)n4C)cn1 = 7.5

Now examine the next entry.
Field Papp A→B (entry CO[C@H]1C[C@@H](n2c(=O)n(C)c3cnc4cc(F)c(-c5ccc(CS(C)(=O)=O)nc5)cc4c32)C1 ) reads 14

###

# EXPERIMENTAL_TARGET: Voltage-gated inwardly rectifying potassium channel KCNH2 (Homo sapiens, UniProt Q12809)
# Sequence (Q12809 whole entry): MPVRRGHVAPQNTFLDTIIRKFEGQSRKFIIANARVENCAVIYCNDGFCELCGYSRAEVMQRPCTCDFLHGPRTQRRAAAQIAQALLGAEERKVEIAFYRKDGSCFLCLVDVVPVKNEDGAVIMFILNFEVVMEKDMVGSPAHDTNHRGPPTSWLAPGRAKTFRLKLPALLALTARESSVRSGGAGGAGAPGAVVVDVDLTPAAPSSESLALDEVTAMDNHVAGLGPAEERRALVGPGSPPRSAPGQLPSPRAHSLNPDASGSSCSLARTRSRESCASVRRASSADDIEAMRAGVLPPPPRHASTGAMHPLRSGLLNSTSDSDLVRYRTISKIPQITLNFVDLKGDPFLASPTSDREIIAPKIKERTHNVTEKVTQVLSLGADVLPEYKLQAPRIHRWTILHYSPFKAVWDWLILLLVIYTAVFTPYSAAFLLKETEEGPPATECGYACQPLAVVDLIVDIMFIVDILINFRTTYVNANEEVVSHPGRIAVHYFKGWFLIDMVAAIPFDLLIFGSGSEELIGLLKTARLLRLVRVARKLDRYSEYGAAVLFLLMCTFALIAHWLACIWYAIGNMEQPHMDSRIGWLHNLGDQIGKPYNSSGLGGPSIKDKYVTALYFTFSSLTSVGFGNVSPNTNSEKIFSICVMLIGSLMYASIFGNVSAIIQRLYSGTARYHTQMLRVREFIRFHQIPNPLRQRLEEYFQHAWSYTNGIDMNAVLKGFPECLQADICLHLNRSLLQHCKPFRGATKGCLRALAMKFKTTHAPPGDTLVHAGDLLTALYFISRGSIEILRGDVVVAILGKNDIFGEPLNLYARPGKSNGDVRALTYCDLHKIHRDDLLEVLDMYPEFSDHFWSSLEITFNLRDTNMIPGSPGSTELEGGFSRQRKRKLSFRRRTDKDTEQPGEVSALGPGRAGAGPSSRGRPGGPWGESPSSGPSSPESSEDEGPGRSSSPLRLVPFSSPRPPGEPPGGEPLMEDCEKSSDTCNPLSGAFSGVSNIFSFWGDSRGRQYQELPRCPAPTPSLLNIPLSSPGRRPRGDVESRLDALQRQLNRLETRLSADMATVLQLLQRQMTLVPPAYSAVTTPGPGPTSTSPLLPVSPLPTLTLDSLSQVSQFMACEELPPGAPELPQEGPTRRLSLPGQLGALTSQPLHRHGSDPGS
# IC50 per entry

Please review the following examples before continuing.
1. CNCCCOc1ccc(-c2ccc3ncc4c(c3c2)n([C@H]2C[C@@H](OC)C2)c(=O)n4C)cn1 = > 33 µM
2. CO[C@H]1C[C@@H](n2c(=O)n(C)c3cnc4ccc(-c5ccc(OCCCN6CCCC6)nc5)cc4c32)C1 = > 33 µM
3. CO[C@H]1C[C@@H](n2c(=O)n(C)c3cnc4ccc(-c5ccc(OCCCN(C)C)nc5)cc4c32)C1 = > 33 µM
4. CO[C@H]1C[C@@H](n2c(=O)n(C)c3cnc4cc(F)c(-c5ccc(OCCN(C)C)nc5)cc4c32)C1 = > 33 µM
5. CN(C)CCCOc1ccc(-c2ccc3ncc4c(c3c2)n([C@@H]2CCCOC2)c(=O)n4C)cn1 = > 33 µM

Briefly, IC50 measured for CN(C)CCCOc1ccc(-c2ccc3ncc4c(c3c2)n([C@H]2C[C@@H](O)C2)c(=O)n4C)cn1 : > 33 µM

IC50 in this record for CO[C@H]1C[C@@H](n2c(=O)n(C)c3cnc4cc(F)c(-c5ccc(C(=O)NCCN(C)C)nc5)cc4c32)C1 : > 33 µM

For record CO[C@H]1C[C@@H](n2c(=O)n(C)c3cnc4ccc(-c5ccc(OCCCN(C)C)nc5F)cc4c32)C1 the listed IC50 is > 33 µM

###

Attribute: Papp A→B
# ASSAY_PROCEDURE: Apparent permeability across apical to basolateral side in MDCK cells overexpressing MDR1
# Type: ADME, cell-based, Canis lupus familiaris
# ASSAY_CONTEXT: dog

Past entries and their recorded results:
1. CN(C)CCCOc1ccc(-c2ccc3ncc4c(c3c2)n([C@H]2C[C@@H](O)C2)c(=O)n4C)cn1 = < 0.2 ×10⁻⁶ cm/s
2. CO[C@H]1C[C@@H](n2c(=O)n(C)c3cnc4cc(F)c(-c5ccc(NCCN(C)C)nc5)cc4c32)C1 = 3.4 ×10⁻⁶ cm/s

Form: compound = COCc1ccc(-c2cc3c(cc2F)ncc2c3n([C@H]3CC[C@H](OC)CC3)c(=O)n2C)cn1 ; Papp A→B = 20 ×10⁻⁶ cm/s

Papp A→B in this record for Cn1c(=O)n(C2CCOCC2)c2c3cc(-c4cccnc4)ccc3ncc21 : 30 ×10⁻⁶ cm/s

Per the records, this compound ( CN(C)CCCOc1ccc(-c2ccc3ncc4c(c3c2)n(C2COC2)c(=O)n4C)cn1 ) has Papp A→B equal to 3.2 ×10⁻⁶ cm/s
